TEST TARGET: purified cynomolgus CD45 ectodomain (cynomolgus monkey)
Sequence (chain, as listed by the source limits assumed, form in doubt): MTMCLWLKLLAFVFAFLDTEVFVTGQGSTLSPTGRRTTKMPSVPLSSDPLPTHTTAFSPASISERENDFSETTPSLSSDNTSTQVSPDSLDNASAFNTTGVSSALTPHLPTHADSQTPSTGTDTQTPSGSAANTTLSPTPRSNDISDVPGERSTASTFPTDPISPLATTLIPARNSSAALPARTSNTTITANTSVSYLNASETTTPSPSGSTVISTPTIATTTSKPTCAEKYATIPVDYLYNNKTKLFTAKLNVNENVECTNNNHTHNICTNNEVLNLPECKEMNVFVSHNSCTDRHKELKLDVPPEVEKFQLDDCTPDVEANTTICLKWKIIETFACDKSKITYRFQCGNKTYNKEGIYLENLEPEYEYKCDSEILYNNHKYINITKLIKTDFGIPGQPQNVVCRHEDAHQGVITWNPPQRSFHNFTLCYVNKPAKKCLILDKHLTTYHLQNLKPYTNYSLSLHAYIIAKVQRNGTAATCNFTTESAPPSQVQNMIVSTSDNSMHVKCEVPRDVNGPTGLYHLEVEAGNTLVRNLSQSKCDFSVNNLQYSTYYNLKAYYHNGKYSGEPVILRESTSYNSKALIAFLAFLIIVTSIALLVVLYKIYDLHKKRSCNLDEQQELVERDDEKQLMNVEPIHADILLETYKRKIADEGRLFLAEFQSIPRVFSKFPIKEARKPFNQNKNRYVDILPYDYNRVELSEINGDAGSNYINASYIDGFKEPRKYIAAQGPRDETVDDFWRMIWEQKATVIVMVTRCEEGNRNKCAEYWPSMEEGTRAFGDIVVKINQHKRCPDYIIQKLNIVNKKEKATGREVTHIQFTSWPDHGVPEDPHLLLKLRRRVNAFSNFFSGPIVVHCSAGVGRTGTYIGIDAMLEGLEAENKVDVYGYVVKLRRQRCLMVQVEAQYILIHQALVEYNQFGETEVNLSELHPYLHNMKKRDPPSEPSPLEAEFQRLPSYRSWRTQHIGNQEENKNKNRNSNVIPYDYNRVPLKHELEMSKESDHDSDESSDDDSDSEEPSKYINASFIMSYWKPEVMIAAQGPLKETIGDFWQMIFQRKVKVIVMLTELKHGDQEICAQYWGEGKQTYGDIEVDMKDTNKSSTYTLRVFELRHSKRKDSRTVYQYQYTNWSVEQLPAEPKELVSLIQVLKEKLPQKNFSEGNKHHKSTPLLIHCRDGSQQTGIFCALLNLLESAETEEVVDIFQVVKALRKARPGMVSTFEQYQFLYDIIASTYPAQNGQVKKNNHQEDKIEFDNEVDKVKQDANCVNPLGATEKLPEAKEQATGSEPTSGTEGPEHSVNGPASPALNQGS
ASSAY: BLI (Octet Red96), IgG on anti-human Fc sensor, 50 nM CD45 ectodomain, 1:1 fit
MEASURED METRIC: kon (M⁻¹ s⁻¹)
Quick note: give the figure in M⁻¹ s⁻¹, leave out the unit.

Example binders with recorded kon:
BINDER	UNITS LABEL	kon
Antibody 2 (Ab2) (antibody, V domains shown) VH: EVQLVESGGGLVQPGGSLRLSCAASGFTFEAYSMNWVRQAPGKGLEWVSYISLSGATIHYADSVKGRFTISRDNAKNSLYLQMNSLRAEDTAVYYCARGGQYYYDSSDYGEVAFDIWGQGTMVTVSS VL: DIVMTQSPLSLPVTPGEPASISCRSSQSLVSNGYNYLDWYLQKPGQSPQLLIYFGSSRASGVPDRFSGSGSGTDFTLKISRVEAEDVGVYYCMQRRRTPWSFGGGTKVEIK	M⁻¹ s⁻¹	119000
Antibody 3 (Ab3) (antibody, V domains shown) VH: QVQLVESGGGLVKPGGSLRLSCAASGFTFGGYSMNWVRQAPGKGLEWVSYISISGATITYADSVKGRFTISRDNAKNSLYLQMNSLRAEDTAVYYCARGGQYYYDSSDYGEVAFDIWGQGTMVTVSS VL: DIVMTQSPLSLPVTPGEPASISCRSSQSLVSNGYNYLDWYLQKPGQSPQLLIYFGSSRASGVPDRFSGSGSGTDFTLKISRVEAEDVGVYYCMQRRRTPPFTFGGGTKVEIK	M⁻¹ s⁻¹	120000

# input for lookup
So, Antibody 4 (Ab4) (antibody, V domains shown) VH: EVQLVESGGGLVQPGGSLRLSCAASGFTFEAYSMNWVRQAPGKGLEWVSYISLSGATIHYADSVKGRFTISRDNAKNSLYLQMNSLRAEDTAVYYCARGGQYYYTSSDYGEVAFDIWGQGTMVTVSS VL: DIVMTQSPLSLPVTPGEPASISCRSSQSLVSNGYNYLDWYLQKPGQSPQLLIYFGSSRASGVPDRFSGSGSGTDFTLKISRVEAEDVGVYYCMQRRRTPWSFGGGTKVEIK ? Its kon was 110000

Origin of the recorded values: patent US20220267441A1
